meta.source: the supplement of paper PMC7125110

B1: glmS ribozyme (parent)
chain: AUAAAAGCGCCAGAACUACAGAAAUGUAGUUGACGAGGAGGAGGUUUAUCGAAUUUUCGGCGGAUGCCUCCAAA

variants of: B1; test: self-cleavage kobs at 10000 uM GlcN6P; higher = faster cleavage; RNA array; settings: with glucosamine-6-phosphate
Fewer inactive variants are shown than the library holds.
Attribute: self-cleavage kobs at 10000 uM GlcN6P
Numbers only; they are read as s⁻¹.

Some entries whose results are on file:
G29C G32A    0.0009
U57C G66A    0.000102
C16G C67U    0.000642
A12U C68G    0.000186
G29U U45C    0.000286

Field request: self-cleavage kobs at 10000 uM GlcN6P | item: U57C C67G
2.21e-05

What does the record list as self-cleavage kobs at 10000 uM GlcN6P for G32C A53U ?
5.79e-05

// returns reported self-cleavage kobs at 10000 uM GlcN6P for input A15C A33C C50G C61G
0.000196

What does the data say about its self-cleavage kobs at 10000 uM GlcN6P? Entry: U46G U69A
0.000143

Given the variant C11U A52G , what is its reported self-cleavage kobs at 10000 uM GlcN6P?
0.000139
